Target: T1, 4H619-bN
T1 chain: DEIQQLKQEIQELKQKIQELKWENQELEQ
Experiment: two-hybrid library CCNG1;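 further: natural log of median RNA to DNA barcode read ratio; higher means stronger binding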
recorded metric: interaction score

{"columns": ["binder", "experimental result"],
 "data": [
  ["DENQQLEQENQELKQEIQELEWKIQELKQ [4H1222-bN]", -0.785],
  ["DKNQQLKQKNQELEQEIQELEWKIQELKQ [4H3974-bN]", -0.273],
  ["DKNQQLKQENQELKQKIQELKWEIQELEQ [4H3817-bN]", -0.743],
  ["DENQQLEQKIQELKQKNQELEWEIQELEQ [4H1393-bN]", -0.97],
  ["DKNQQLEQKIQELKQENQELEWKIQELKQ [4H3414-bN]", -2.07],
  ["DEIQQLKQEIQELEQKNQELKWEIQELKQ [4H570-bN]", -1.3]
]}
